Target: GST-tagged recombinant full-length human Pim-2 (Homo sapiens, UniProt Q9P1W9)
Construct: GST-tagged recombinant full-length human Pim-2; GST
Sequence (Q9P1W9 whole entry): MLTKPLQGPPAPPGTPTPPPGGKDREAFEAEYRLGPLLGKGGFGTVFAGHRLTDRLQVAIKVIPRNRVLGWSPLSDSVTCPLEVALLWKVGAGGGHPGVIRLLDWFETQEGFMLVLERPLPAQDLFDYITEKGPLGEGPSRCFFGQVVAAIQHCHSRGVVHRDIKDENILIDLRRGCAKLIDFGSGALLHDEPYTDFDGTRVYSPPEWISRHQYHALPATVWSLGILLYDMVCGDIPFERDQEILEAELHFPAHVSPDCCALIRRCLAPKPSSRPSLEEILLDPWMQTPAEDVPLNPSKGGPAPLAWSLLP
Assay: PIM-2 Assay (as Example A)
Conditions: averaged IC50; 4 μM ATP, 1.0 μM PIM2tide, 1.5 nM Pim-2
pIC50: −log10 of the molar value. Structures can show the parent of a compound that is named as a salt.
readout-name: pIC50

compound=CCC(CC)C(=O)OCCOc1cc2nc(-c3nnc4ccc([C@@H](N5CC[C@H](N)C5)C(F)(F)F)cn34)ccc2cc1F value_comparator=< recorded_number=6.00
compound="C[C@@H](c1ccc2nnc(-c3ccc4cccc(C(C)(C)C)c4n3)n2c1)N1CC[C@H](N)C1 [Example 308, trihydrochloride]" value_comparator== recorded_number=7.53
compound="CC1(NC(=O)c2ccc3ccc(-c4nnc5ccc([C@@H](N6CC[C@H](N)C6)C(F)(F)F)cn45)nc3c2)CC1 [Example 53, dihydrochloride]" value_comparator== recorded_number=7.57
compound="CC(C)N[C@H]1CCN(C(c2ccc3nnc(-c4ccc5cccc(OCC6CC6)c5n4)n3c2)C(F)(F)F)C1 (stereo partly drawn) [Example 32, dihydrochloride]" value_comparator== recorded_number=6.58
compound="COCCOc1cc2nc(-c3nnc4ccc([C@@H](N5CC[C@H](N)C5)C(F)(F)F)cn34)ccc2cc1F [Example 120, hydrochloride]" value_comparator=< recorded_number=7.00
compound="CC(C)Oc1cc(F)cc2ccc(-c3nnc4ccc([C@H](N5CC[C@H](N)C5)C(F)(F)F)cn34)nc12 [Example 135, hydrochloride]" value_comparator== recorded_number=7.09

All figures here come from patent US8889704B2.
